experiment: protein stability index of a GFP-peptide fusion (yeast GPS) (PSI 1-4); higher = more stable; sorted into four equal gates, so the index is relative within each strain; conditions: san1∆

seq | protein stability index
VFSHAQTAVTCESCSTI [RPS27A] | 1.16
LNCGNGMGIGFIDHHAA [POP1] | 3.33
LSRPYKALKTNINFASG [CDC53] | 2.4
TLEAKIGGLLSKVREEV [RPO31] | 3.6
EFVSYYYAHSIPSSKID [SNU114] | 2.07
QRRGPLVVYAEDNGIVK [RPL4A] | 2.46
ISKQRTFAVILFLIIQC [YMR129W/POM152] | 1.32
HGKRRSQVVETHKVTDI [YMR129W/POM152] | 3.18
AVKLGDLKKFTSTITKY [RPN3] | 2.27
QKVQGESHIDSRNNTLN [SIR4] | 3.08
KDNGMLIIDGQIIFGVV [RPO21] | 1.61
QIYGFEGLNQRNQVQTE [YGR119C/NUP57] | 3.08
KIVFILDSDSENDLSFA [RRI2] | 2.09
ALAFGYVKSLHKQISAE [SIN4] | 1.78
NMPNCDYLTLNKVVVNL [RPN2] | 2.58
QQYVAAGDLRALDTVTN [FAS1] | 2.92
FIMASVGKYDKAIELLE [SRP72] | 2.54
DIIWLQRDLGLYVVGLF [RRP6] | 1.4
RRSKMNPLWNAIIVAGV [PRE4] | 2.86
DDYEDQDDDDYVDTATA [IRR1] | 2.93
RKYDLFQNLELETEQLS [SMC2] | 1.99
MKYAVSKTSENKVSNTV [SIR2] | 3.15
LEYEISKLKKETASFIP [YIL149C/MLP2] | 2.89
TRYNRDYMLSMANIPER [SNU114] | 2.62
LVQKFGGADQVTRTQQW [SWI1] | 2.88
EYQVIGRRLPTESVPEP [RPL20A] | 3.1
VESVCQKLDILVAKLKK [SMC4] | 2.24
SIGASIADLASLEQLLG [YCS4] | 2.9
NISISTSELGNDDFSEV [BRR2] | 2.46
FSKAIEWDMLNVEEEQI [BRR2] | 2.54

Recorded values, source the supplement of paper PMC9732359.
